compounds and their reported GFP response vs DMSO
- method.summary: yeast TOR pathway CIT2-GFP reporter retest – flow cytometry, third cherry pick, single plex, confirmation (AID 504340);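 note: median GFP fluorescence over all cells with no mother versus daughter split; sample signal as a ratio to the plate DMSO mean so 100% equals DMSO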
- applied.conditions: S. cerevisiae CIT2-GFP strain, 3 h, at 10 µM, hits give high values
experimental.endpoint: GFP response vs DMSO (%)

[[record]]
smiles_record = "C/C(=C\\C(=O)c1ccccc1)Nc1ccc(O)cc1"
experimental_endpoint = "GFP response vs DMSO"
units = "%"
measured_result = 103

[[record]]
smiles_record = "C/C(=C\\C(=O)c1ccc(Cl)cc1)Nc1ccc(Br)cc1"
experimental_endpoint = "GFP response vs DMSO"
units = "%"
measured_result = 104

[[record]]
smiles_record = "CC(=O)Nn1cnc2c(c1=O)C1(CCCCC1)Cc1ccccc1-2"
experimental_endpoint = "GFP response vs DMSO"
units = "%"
measured_result = 112

[[record]]
smiles_record = "C=CCNc1nc(N)c([N+](=O)[O-])c(Nc2cccc(Cl)c2)n1"
experimental_endpoint = "GFP response vs DMSO"
units = "%"
measured_result = 114

[[record]]
smiles_record = "Cc1cc(C)c2ccc(C(=O)O)nc2c1O"
experimental_endpoint = "GFP response vs DMSO"
units = "%"
measured_result = 88

[[record]]
smiles_record = "CN(C)CCCNc1cc(O)c2ncccc2c1"
experimental_endpoint = "GFP response vs DMSO"
units = "%"
measured_result = 112


----------
- method.summary: yeast TOR pathway CIT2-GFP reporter retest – flow cytometry, third cherry pick, single plex, confirmation (AID 504340);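 note: median GFP fluorescence over all cells with no mother versus daughter split; sample signal as a ratio to the plate DMSO mean so 100% equals DMSO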
- applied.conditions: S. cerevisiae CIT2-GFP strain, 3 h, at 10 µM
The source made the active and inactive calls.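 Rule for the calls: active = GFP response above 150% of the DMSO control; inconclusive = Under 70 cell events counted for a yeast strain; inactive = the rest.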
Possible outcomes: true = active, false = inactive

[[record]]
compound = "Oc1c(Br)cc(Br)c2cccnc12"
category = "true"

[[record]]
compound = "COc1cccc2c(O)cc(=O)n(C)c12"
category = "false"

[[record]]
compound = "Cc1ccc2c(Cl)cc(Cl)c(OCC(=O)O)c2n1"
category = "false"

[[record]]
compound = "Nc1c(O)ccc2c1C(=O)c1ccccc1C2=O"
category = "false"

[[record]]
compound = "COc1cccc2c(=O)c(C(=O)O)c[nH]c12"
category = "false"

[[record]]
compound = "COc1ccccc1OCc1cc(C(=O)N2CCN(C)C(c3ccccc3)C2)no1 (configuration not stated)"
category = "false"

[[record]]
compound = "Cc1ccc(Nc2nc(N)[nH]c(=O)c2N=O)cc1"
category = "false"

[[record]]
compound = "CNc1nc(C)c([N+](=O)[O-])c(Nc2ccc(OC)cc2)n1"
category = "false"

[[record]]
compound = "COCCNc1nc(N)c([N+](=O)[O-])c(Nc2ccc(F)cc2)n1"
category = "false"

[[record]]
compound = "CCC(=O)Nn1cnc2c(c1=O)C1(CCCCC1)Cc1ccccc1-2"
category = "false"

[[record]]
compound = "O=C1c2ccccc2C(=O)c2c1cccc2N(CCO)CCO"
category = "false"

[[record]]
compound = "Cc1cccc(C)c1Nc1ncnc(N)c1[N+](=O)[O-]"
category = "false"


----------
- method.summary: yeast TOR pathway CIT2-GFP reporter retest – flow cytometry, third cherry pick, single plex, confirmation (AID 504340);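 note: median GFP fluorescence over all cells with no mother versus daughter split; sample signal as a ratio to the plate DMSO mean so 100% equals DMSO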
- applied.conditions: S. cerevisiae CIT2-GFP strain, 3 h, at 10 µM, hits give high values
The source made the active and inactive calls.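 Rule for the calls: active = GFP response above 150% of the DMSO control; inconclusive = Under 70 cell events counted for a yeast strain; inactive = the rest.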
compounds and their reported GFP response vs DMSO
experimental.endpoint: GFP response vs DMSO

[[record]]
compound = "C=CCNc1nc(N)c([N+](=O)[O-])c(Nc2ccccc2OC)n1"
experimental_endpoint = "GFP response vs DMSO"
measured_result = "127% (inactive)"

[[record]]
compound = "COc1ccc(OC)c(Nc2nc(NCCC(C)C)nc(N)c2[N+](=O)[O-])c1"
experimental_endpoint = "GFP response vs DMSO"
measured_result = "103% (inactive)"

[[record]]
compound = "Cc1ccc(NC(=O)O/N=C2\\CCCCC2c2ccc([N+](=O)[O-])cc2[N+](=O)[O-])cc1 (configuration not stated)"
experimental_endpoint = "GFP response vs DMSO"
measured_result = "106% (inactive)"

[[record]]
compound = "N#Cc1c(N)nc(N)nc1Nc1ccc(Br)cc1"
experimental_endpoint = "GFP response vs DMSO"
measured_result = "99.3% (inactive)"

[[record]]
compound = "O=C(N/N=C/c1ccccc1F)c1cccc2ccccc12"
experimental_endpoint = "GFP response vs DMSO"
measured_result = "104% (inactive)"

[[record]]
compound = "Cc1cc(C)c2ccc(N)nc2c1O"
experimental_endpoint = "GFP response vs DMSO"
measured_result = "99.3% (inactive)"

[[record]]
compound = "O=C(Nc1ccccc1)O/N=C1/CCCc2occc21"
experimental_endpoint = "GFP response vs DMSO"
measured_result = "103% (inactive)"

[[record]]
compound = "Cn1c(NCCCO)nc2c(c1=O)C1(CCCCC1)Cc1ccccc1-2"
experimental_endpoint = "GFP response vs DMSO"
measured_result = "117% (inactive)"

[[record]]
compound = "Cc1nc(Nc2ccc(Cl)cc2)c(C#N)c(=O)[nH]1"
experimental_endpoint = "GFP response vs DMSO"
measured_result = "107% (inactive)"

[[record]]
compound = "C[n+]1cccc2cccc([O-])c21"
experimental_endpoint = "GFP response vs DMSO"
measured_result = "103% (inactive)"

[[record]]
compound = "C/C(=N\\NC(=O)c1ccccc1)c1ccccc1F"
experimental_endpoint = "GFP response vs DMSO"
measured_result = "104% (inactive)"

[[record]]
compound = "Cc1cccc(N/C=C/C(=O)c2ccc(Cl)cc2)c1"
experimental_endpoint = "GFP response vs DMSO"
measured_result = "97.7% (inactive)"

[[record]]
compound = "C=CCNc1ncnc2ccc(Br)cc12"
experimental_endpoint = "GFP response vs DMSO"
measured_result = "101% (inactive)"

[[record]]
compound = "CSc1nc(Nc2ccc(Cl)cc2)c(C#N)c(=O)[nH]1"
experimental_endpoint = "GFP response vs DMSO"
measured_result = "104% (inactive)"

[[record]]
compound = "O=C(Nc1cccc2ccccc12)ON=C1CCCCC1"
experimental_endpoint = "GFP response vs DMSO"
measured_result = "106% (inactive)"

[[record]]
compound = "CCCOCc1ccc(O)c2ncccc12"
experimental_endpoint = "GFP response vs DMSO"
measured_result = "104% (inactive)"

[[record]]
compound = "Nc1cc(C(=O)O)c(N)c2c1C(=O)c1ccccc1C2=O"
experimental_endpoint = "GFP response vs DMSO"
measured_result = "94.5% (inactive)"


Data provenance: PubChem BioAssay AID504340
